- test system: T1, CD28 on Jurkat/IL2 reporter cells (human, UniProt P10747 19-220)
- T1 construct: whole, on cells; Endogenous CD28 of Jurkat cells; also called Jurkats (CD28)
- assay: flow cytometry, Jurkat cells (CD28)
test readout: MFI at 33.3 nM

variant CD80 IgV-Fc E35D/M47V/I61V/L85M (Fc fusion, not shown: a dimerising Fc or GST) VIHVTKEVKEVATLSCGHNVSVEELAQTRIYWQKDKKMVLTMMSGDVNIWPEYKNRTIFDVTNNLSIVILALRPSDEGTYECVVMKYEKDAFKREHLAEVTLSVKAD = 274 MFI
WT CD80 ECD-Fc H22.6 (Fc fusion, not shown: a dimerising Fc or GST, Control; The token H22.6 is not explained) VIHVTKEVKEVATLSCGHNVSVEELAQTRIYWQKEKKMVLTMMSGDMNIWPEYKNRTIFDITNNLSIVILALRPSDEGTYECVVLKYEKDAFKREHLAEVTLSVKADFPTPSISDFEIPTSNIRRIICSTSGGFPEPHLSWLENGEELNAINTTVSQDPETELYAVSSKLDFNMTTNHSFMCLIKYGHLRVNQTFNWNTTKQEHFPDN = 43 MFI
variant CD80 IgV-Fc H18Y/E35D/M47V/N48K (Fc fusion, not shown: a dimerising Fc or GST) VIHVTKEVKEVATLSCGYNVSVEELAQTRIYWQKDKKMVLTMMSGDVKIWPEYKNRTIFDITNNLSIVILALRPSDEGTYECVVLKYEKDAFKREHLAEVTLSVKAD = 841 MFI
variant CD80 IgV-Fc M43I/M47L/A71G (Fc fusion, not shown: a dimerising Fc or GST) VIHVTKEVKEVATLSCGHNVSVEELAQTRIYWQKEKKMVLTMISGDLNIWPEYKNRTIFDITNNLSIVILGLRPSDEGTYECVVLKYEKDAFKREHLAEVTLSVKAD = 1000 MFI
